- STUDY_SYSTEM: recombinant human 5-HT5A receptor (Homo sapiens, UniProt P47898)
- Construct: membranes
- Sequence (P47898 whole entry): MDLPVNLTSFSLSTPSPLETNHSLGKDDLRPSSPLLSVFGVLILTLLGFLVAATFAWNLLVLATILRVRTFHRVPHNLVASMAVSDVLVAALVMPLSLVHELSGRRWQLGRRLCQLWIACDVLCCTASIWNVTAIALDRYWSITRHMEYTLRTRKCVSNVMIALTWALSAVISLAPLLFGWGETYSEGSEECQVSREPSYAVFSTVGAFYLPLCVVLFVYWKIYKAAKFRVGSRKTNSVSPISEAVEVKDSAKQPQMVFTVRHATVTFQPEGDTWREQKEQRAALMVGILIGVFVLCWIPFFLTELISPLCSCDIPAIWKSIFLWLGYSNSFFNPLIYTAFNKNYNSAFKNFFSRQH
- TEST_DESCRIPTION: [3H]LSD radioligand binding assay, membranes of HEK-EBNA cells transiently expressing 5-HT5A receptors
- EXPERIMENTAL_PARAMETERS: [3H]LSD approx. 1 nM, SPA beads, 120 min at room temperature; Ki from IC50 by the Cheng-Prussoff equation
Friendly reminder: Ki below 10 nM is true, at or above is false.

Before answering, review these 6 worked examples.
>>> df
                            chemical_smiles  assigned_category
0  CS(=O)(=O)Nc1cccc2c1COC(N[C@@H]1CCc3ccccc31)=N2               true
1  O=S(=O)(Nc1cccc2c1COC(N[C@@H]1CCc3ccccc31)=N2)c1cc(F)cc(F)c1               true
2  Clc1ccc(Nc2cccc3c2COC(N[C@@H]2CCc4ccccc42)=N3)cc1               true
3    Clc1cccc2c1COC(N[C@@H]1CCc3ccccc31)=N2              false
4  c1ccc2c(c1)CC[C@H]2NC1=Nc2cccc(C3CC3)c2CO1              false
5   N#Cc1cccc2c1COC(N[C@@H]1CCc3ccccc31)=N2              false

# strict comparison: is reported Ki < 10 nM? input = Nc1cccc2c1COC(N[C@@H]1CCc3ccccc31)=N2
true

Try the compound O=[N+]([O-])c1cccc2c1COC(N[C@@H]1CCc3ccccc31)=N2
false

Try the compound Fc1ccc(-c2cccc3c2COC(N[C@@H]2CCc4ccccc42)=N3)cc1
false

The measurements presented in this section are drawn from patent US8044047B2.
